For each record, write down the corresponding CDC Maximum lysis (%).
- TEST_SYSTEM: human Claudin 18.2 (hCLDN18.2) (human, UniProt P56856-2 1-261)
- TEST_METHOD_NOTES: cell-based or functional assay
One number for each entry, in %.

Recorded results for 2 binders are shown here.
Specify measured CDC Maximum lysis (%) for ch-126A11 (antibody, V domains shown, also called chimeric antibody of clone 126A11) VH: QVQLKESGPGLVAPSQSLSITCTVSEFSLTTYGVSWVRQPPGKGLEWLGVIWGDGSTNYHSALISRLSISKDTSKSQVFLKLNSLQTDDTATYYCAKPGLRNAMDYWGQGTSVTVSS VL: DIVMTQSPSSLSVSAGEKVTMSCKSSQSLLNSGNQKNYLAWYQQKPGQPPKLLIYGASTRESGVPDRFTGSGSGTDFTLTISSVQAEDLAVYYCQNDLIYPLTFGAGTKLELK .
95

Specify measured CDC Maximum lysis (%) for ch-239E9 (antibody, V domains shown, also called chimeric antibody of clone 239E9) VH: QVQLQQSGPELVRPGVSVKISCKGSSYTFTDYTMHWVKQSHAKSLEWIGFIGVYYGNTNYNQKFKGKATMTVDKSSSTAYMELARLTSEDSAVYYCARIGRGNAMDYWGQGTSVTVSS VL: DIVMTQSPSSLTVTAGEKVTMSCKSSQSLLNSGNQKNYLTWYQQKPGQPPKLLIYWASTRESGVPDRFTGSGSGTDFTLTISSVQAEDLAVYNCQNAYSYPFTFGSGTKLEIK .
94.8

New cases:
Specify measured CDC Maximum lysis (%) for ch-40G7 (antibody, V domains shown, also called chimeric antibody of clone 40G7) VH: QVQLQQPGTELVKPGASVKLSCKASGYTFTNYWMHWVKQRPGHGLEWIGMIHPNSYSTNYNEKFRSKATLTVDKSSSTAYMQLSSLTSEDSAVYYCTRIYYGNAMDYWGQGTSVTVSS VL: DIVMTQSPSSLTVTAGERVTMSCKSSQSLFNSGNQKNYLTWYHQKPGQPPKLLIYWAFTRESGVPDRFTGSGSGTDFTLTIRSVQAEDLAVYYCQNDYSYPFTFGSGTKLEIK .
89.1
